- Test system: Pseudomonas aeruginosa
- PROTOCOL DESCRIPTION: Potentiation of ceftazidime-induced antibacterial activity against carbapenem-resistant Pseudomonas aeruginosa 262-101856 clinical isolate assessed as ceftazidime MIC at 8 uM by checkerboard assay (reference value: 16 ug/ml)
- Format: functional
Please go through the items and note down their MIC.

Asked: Value lookup for MIC; key = `NC[C@H]1O[C@H](O[C@H]2[C@H](OCCCCCCCCN3CCCNCCNCCCNCC3)[C@@H](O)[C@H](N)C[C@@H]2N)[C@H](N)C[C@@H]1O.O=C(O)C(F)(F)F.O=C(O)C(F)(F)F.O=C(O)C(F)(F)F.O=C(O)C(F)(F)F.O=C(O)C(F)(F)F.O=C(O)C(F)(F)F.O=C(O)C(F)(F)F.O=C(O)C(F)(F)F`
Given back: 16 µg/mL

Asked: // MIC lookup, key: `Cl.Cl.Cl.Cl.Cl.NC[C@H]1O[C@H](O[C@H]2[C@H](OCCCCCCCCCCCCN3CCN(c4cc5c(cc4F)c(=O)c(C(=O)O)cn5C4CC4)CC3)[C@@H](O)[C@H](N)C[C@@H]2N)[C@H](N)C[C@@H]1O`
Given back: 4 µg/mL

Values from ChEMBL document CHEMBL4665836
